- Test Target: Solute carrier family 22 member 1 (Homo sapiens, UniProt O15245)
- Sequence (O15245 whole entry): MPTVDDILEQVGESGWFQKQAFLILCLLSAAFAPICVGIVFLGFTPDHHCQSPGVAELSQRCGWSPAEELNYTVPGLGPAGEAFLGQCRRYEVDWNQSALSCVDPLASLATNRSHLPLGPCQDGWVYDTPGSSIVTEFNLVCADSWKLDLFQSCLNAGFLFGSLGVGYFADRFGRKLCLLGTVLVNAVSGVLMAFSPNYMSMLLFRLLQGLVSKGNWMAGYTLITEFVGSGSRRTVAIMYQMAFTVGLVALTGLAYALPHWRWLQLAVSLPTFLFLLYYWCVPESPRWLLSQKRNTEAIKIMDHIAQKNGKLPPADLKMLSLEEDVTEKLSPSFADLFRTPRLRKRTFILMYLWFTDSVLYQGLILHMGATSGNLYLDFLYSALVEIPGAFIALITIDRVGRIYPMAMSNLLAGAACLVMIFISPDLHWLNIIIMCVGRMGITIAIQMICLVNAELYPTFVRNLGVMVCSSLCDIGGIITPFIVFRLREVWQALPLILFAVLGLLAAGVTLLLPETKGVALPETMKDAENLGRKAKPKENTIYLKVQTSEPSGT
- Assay Details: TP_TRANSPORTER: inhibition of uptake of 0.1 uM MPP+ in OCT1-expressing 293 cells
- Format: functional, cell-based, HEK293
Measured Attribute: pKi
Answers are plain numbers, as −log10 of the molar value.

Specify measured pKi for "N=C(N)NCCCCN" . 1.62
